This collection of values is drawn from ChEMBL document CHEMBL1121941.

Each entry below carries its reported logP.
# Assay: Partition coefficient (logP)
# Assay type: physicochemical
# Condition info: octanol/water
Please reply with the number alone, leaving off any unit.

A selection of reference data follows.
[[record]]
test_smiles = "Clc1ccc(Cl)c(NC2=NCCN2)c1Cl"
measured_number = 1.71

[[record]]
test_smiles = "Clc1cccc(Cl)c1NC1=NCCN1"
measured_number = 0.91


From here, focus on the item given below.
Check the records and state logP for Cc1ccc(Cl)c(Cl)c1NC1=NCCN1 1.06
